System: M14 melanoma
Assay: NCI-60 one-dose screen, 48 h (100 = growth as untreated, 0 = no growth, -100 = all killed)
Settings: 10 µM unless noted
Compounds without any hit were thinned out: in the full panel of roughly 83,000, 20% have a hit.
// Condition not met strictly below 80% in growth; Condition met otherwise

{"molecule": "CCNc1cc(S(=O)(=O)O)ccc1C", "class": "Condition met"}
{"molecule": "Nc1nc2ccc(CNc3ccc(C(=O)NC(CC(=O)O)C(=O)O)cc3)cc2c(=O)[nH]1 (centres undefined)", "class": "Condition not met"}
{"molecule": "CC(=O)N1N=C(CCC(=O)c2nc3ccc([N+](=O)[O-])cc3[nH]2)OC1c1ccc(O)cc1 (centres undefined)", "class": "Condition met"}

Lookup: Is it the case that C=C1C(=O)O[C@H]2[C@H]1CC/C(COC(=O)c1cc(OC)c(OC)c(OC)c1)=C\CC[C@@]1(C)O[C@@H]21 has growth reaching or exceeding 80%?
Found: Condition not met

Lookup: Is it the case that Cc1cc(NC(=O)c2cccc(C(F)(F)F)c2)ccc1-n1ccc2c(NC(=O)c3ccccc3)nccc21 has growth reaching or exceeding 80%?
Found: Condition met

Lookup: Is it the case that NC(=O)C1=C[C@H]2[C@H]3C=C[C@@]2(O)C(=O)O[C@@H]3O1 has growth reaching or exceeding 80%?
Found: Condition not met

Lookup: Is it the case that CC(C)C(=O)Nc1nc2c(s1)CCCc1ccn(S(=O)(=O)c3ccccc3)c1-2 has growth reaching or exceeding 80%?
Found: Condition met

----------
Test system: NCI-H522 lung
Test: NCI-60 one-dose screen, 48 h
Details: 10 µM unless noted
The panel holds about 83,000 compounds, 20% with a hit somewhere; the sample as a whole holds those more often. Activity calls are given as the source filed them. The calls were made as follows: active = growth percent below 10; inactive = the rest.
A correct response names exactly one class from y = active, n = inactive

The following compounds have reported results that may help.
{"compound": "Cn1c2ccccc2c2ssc(=S)c21", "class": "n"}
{"compound": "Cc1cccc(Cc2cnc(NC(=O)CCc3ccc(C)o3)s2)c1", "class": "y"}

Lookup: Could you check what this test reported for Cc1cc(NC(=O)c2cccc(C(F)(F)F)c2)ccc1-n1ccc2c(NC(=O)c3ccccc3)nccc21 ?
Found: n

Lookup: Could you check what this test reported for COc1ccc(-c2[nH]c3ccccc3c2/C=C(\C#N)S(=O)(=O)c2ccccc2)cc1 ?
Found: n

----------
System: DU-145 prostate
Assay: NCI-60 one-dose screen, 48 h
Details: 10 µM unless noted
Experimental: Cells are grown in 96 well plates and exposed to the test compound for 48 hours. Compounds are tested at a single concentration, which is 10^-5 M for most compounds. The reported endpoint is percent growth (GI% or GIPRCNT), where numbers from 0 - 100% represent growth inhibition, and numbers from -100% - 0 represent cell death. For example, a value of 40 represents 60% growth inhibition. A value of 0 means no net growth occurred over the course of the experiment. […]
Compounds without any hit were thinned out: in the full panel of roughly 83,000, 20% have a hit. Activity calls are given as the source filed them. Rule for the calls: active = growth percent below 10; inactive = the rest.
A correct response names exactly one class from Yes for active, No for inactive

The following molecules have reported results that may help.
{"molecule": "CCCCn1c(-c2cccc(OC)c2)nc2cc(OC)c(OC)cc2c1=O", "class": "No"}
{"molecule": "O=C(C[n+]1ccccc1Cl)c1ccc2c(c1)CCCC2", "class": "No"}
{"molecule": "COC(=O)Nc1nc2ccc(Sc3ccccc3)cc2[nH]1", "class": "No"}
{"molecule": "COc1ccc(CNc2nc3ccccc3c3c(=O)c4ccccc4sc23)cc1OC", "class": "No"}
{"molecule": "O=C(NCCNc1nccc(-c2c(-c3cccc(O)c3)nc3sccn23)n1)c1ccccc1O", "class": "No"}

Lookup: Could you check what this test reported for Clc1ccc(OCc2nc(-c3ccccc3)n[nH]2)c(Cl)c1 ?
Found: No

Lookup: Could you check what this test reported for CSc1ccc(C(=O)C[n+]2cccc(C)c2)cc1 ?
Found: No

Lookup: Could you check what this test reported for CC(Cc1cccc(C(F)(F)F)c1)NCCOC(=O)c1ccccc1 (stereo unspecified) ?
Found: No

Lookup: Could you check what this test reported for COc1ccc(C(=O)NC(=O)Nc2ccc3c(c2)NC(=O)/C3=C\c2[nH]c(C)c(C(=O)O)c2C)c(F)c1 ?
Found: No

Lookup: Could you check what this test reported for COc1ccc2c(c1)/C(=C/c1c(-c3cc(OC)c(OC)c(OC)c3Br)nc3sccn13)C(=O)N2 ?
Found: No

Lookup: Could you check what this test reported for CCCC(=O)Oc1ccc(/C(=C(\C)c2ccc(Cl)cc2)c2ccc(OCCN(CC)CC)cc2)cc1 ?
Found: Yes

Lookup: Could you check what this test reported for O=C(/C=C/c1ccccc1)Oc1ccc(/C=C/c2cc(OC(=O)/C=C/c3ccccc3)cc(OC(=O)/C=C/c3ccccc3)c2)cc1 ?
Found: No

Lookup: Could you check what this test reported for CC(=O)c1cc2c(c(O)c1C)C(=O)C(=O)c1c(O)cccc1-2 ?
Found: Yes

Lookup: Could you check what this test reported for CCOC(=O)NNc1nncc2ccccc12 ?
Found: No

Lookup: Could you check what this test reported for O=C1c2ccccc2OC=C(c2ccccc2)N1CCCCNc1ccc(F)cc1 ?
Found: No

Lookup: Could you check what this test reported for COc1ccc2c(c1)OC(N(C(C)=O)C(C)=O)=C(C#N)C2c1ccc(F)cc1 (stereo unspecified) ?
Found: No

Lookup: Could you check what this test reported for CCN1CCN(Cc2ccc(NC(=O)Nc3cccc(-n4ccc5c(NC(=O)c6ccccc6)nccc54)c3)cc2C(F)(F)F)CC1 ?
Found: No

Lookup: Could you check what this test reported for CC(=S)Nc1ccccc1 ?
Found: No

Lookup: Could you check what this test reported for CCCCCCCC(=O)SCC/C=C/[C@@H]1CC(=O)NCc2nc(cs2)C2=N[C@@](C)(CS2)C(=O)N[C@@H](C(C)C)C(=O)N1 ?
Found: No

Lookup: Could you check what this test reported for Cc1ccc2c(C3C(C#N)=C(N)Oc4cc5ccccc5cc43)cc(=O)oc2c1 (stereo unspecified) ?
Found: No

Lookup: Could you check what this test reported for Nc1ncnc2c1c(-c1ccc(Oc3ccccc3)cc1)nn2C[C@@H]1SSC[C@H]1O ?
Found: No

Lookup: Could you check what this test reported for Clc1ccc2c(c1)nnn1c3ncccc3c(Br)c21 ?
Found: No

Lookup: Could you check what this test reported for CCCCCCCCCCCC(=O)OCCNC(=O)C[n+]1ccccc1 ?
Found: No

Lookup: Could you check what this test reported for O=C(O)c1ccc(-n2cc(/C=N/Nc3ccc(Cl)cc3)c(-c3ccc(F)c(F)c3)n2)cc1 ?
Found: No
